# experiment: Lipid A binding competition with [125I]-rLBP
# experimental-setup: read-out: IC50 (inhibition of Lipid A binding of radiolabeled rLBP)
Ends that are not written are not given here.
Hi there, I'd appreciate the recorded IC50 for every entry that follows.
Answers are plain numbers, in nM.

Sample records with IC50:
[[record]]
substance = "KSKVGWLIQLFHKK-NH2 (C-terminus assumed) [BPI.13]"
recorded_metric = "IC50"
data_value = 1000

[[record]]
substance = "KWKAQKRFLKKWKAQKRFLK-NH2 (C-terminus assumed) [BPI.7]"
recorded_metric = "IC50"
data_value = 100


For each entry beneath this line, provide reported IC50.
1. KWKAAARFLKKWKAAARFLK [BPI.48]
2. KWKAQKRFLKKSKVGWLIQLFHKK-NH2 (C-terminus assumed) [BPI.30]
3. KSKVGWLIQLFHKKKSKVGWLIQLFHKK-NH2 (C-terminus assumed) [BPI.29]
4. NVGLKFSISNANIKISGKWKAQKRFLK [BPI.3]
5. IKISGKWKAQKRFLK [BPI.2]

200
250
130
250
1300

---

Hi there, I'd appreciate the recorded Heparin Capacity for every entry that follows.
# experiment: 3H-heparin binding assay (affinity and capacity)
# experimental-setup: heparin bound at saturation
Ends that are not written are not given here.
One number for each entry, in ng.

For each entry beneath this line, provide reported Heparin Capacity.
1. KSKVGWLIKLFHKK [BPI.92]
2. IKISGKWKAQKRAβ-(3-pyridyl)LK [BPI.72]
3. IKISGKWKAQWRFLK [BPI.77]

1. 227.3
2. 102.8
3. 581.7

For each entry beneath this line, provide reported Heparin Capacity.
1. KSKVGWLIQLFHKKKSKVGWLIQLFHKK-NH2 (C-terminus assumed) [BPI.29]
2. KSKVGWAIQLFHKK [BPI.37]
3. IKISGKWKAAARFLK [BPI.45]
4. KWKAAARFLKKWKAAARFLK [BPI.48]

463.7
136.7
160.7
442.3

For each entry beneath this line, provide reported Heparin Capacity.
1. SVHVHISKSKVGWLIQLFHKKIESALRNK [BPI.12]
2. GTAALQKELKRIKIP [BPI.54]
3. IKIAGKWKAQKRFLK [BPI.18]
4. IKISGKWKAQKRFAK [BPI.27]

1. 231.5
2. 64.3
3. 156.6
4. 119.8

For each entry beneath this line, provide reported Heparin Capacity.
1. IKISGKWKAQKRALK [BPI.26]
2. KSKAGWLIQLFHKK [BPI.34]
3. KSKVGWLIQLFFKK [BPI.94]
4. KSAVGWLIQLFHKK [BPI.33]
5. KWKAQKRFLKKSKVGWLIQLFHKK-NH2 (C-terminus assumed) [BPI.30]
6. Cecropin A (KWKLFKKIEKVGQNIRDGIIKAGPAVAVVGQATQIAK; ends and bridges not checked; UniProt P01507 27-63, looked up) [antibacterial peptide of lepidopteran insects (Sigma), reference compound]

1: 113.1; 2: 205.1; 3: 216.1; 4: 230.7; 5: 499.4; 6: 242.0

Summary for this substance, KSKVGWLIQLFHKF [BPI.96] : Heparin Capacity is 203.8

---

# Tested on: C. albicans
# experiment: Radial diffusion fungicidal assay, Candida albicans
# Assay type: cell-based
# experimental-setup: radial diffusion
Ends that are not written are not given here.
recorded-metric: C. albicans: pmol required for 30 mm^2 zone

[[record]]
sequence_text = "KSKVGWLIQLFLKK [BPI.87]"
system_under_test = "C. albicans"
data_value = ">1535.78 pmol"

[[record]]
sequence_text = "KSKVGWLIFLFHKK [BPI.91]"
system_under_test = "C. albicans"
data_value = ">3843.54 pmol"


Please find the next sequence below.
Summary for this sequence, KSKVFWLIQLFHKK [BPI.95] : C. albicans: pmol required for 30 mm^2 zone is >1397.64 pmol

---

# experiment: 3H-heparin binding assay (affinity and capacity)
# experimental-setup: read-out: Heparin Affinity
Square brackets hold non-standard residues; d marks the D form. Ends that are not written are not given here. 1Nal = N[C@@H](Cc1cccc2ccccc12)C(=O)O
recorded-metric: log10(Kd) (log10 of the value in nM)
Heads up: the numbers are on a log10 scale; they represent Kd in nM.

[[record]]
substance = "KSKVGWLIQLFHKA [BPI.44]"
data_value = 2.76

[[record]]
substance = "KWKAAARFLKKWKAAARFLK [BPI.48]"
data_value = 3.15

[[record]]
substance = "KSKVAWLIQLFHKK [BPI.35]"
data_value = 3.03

[[record]]
substance = "KWKAAARFLKKWKAQKRFLK [BPI.46]"
data_value = 3.03

[[record]]
substance = "IKISGKAβ-(1-naphthyl)KAQKRFLK (IKISGK[1Nal]KAQKRFLK) [BPI.67]"
data_value = 2.03

[[record]]
substance = "KSKVGWAIQLFHKK [BPI.37]"
data_value = 2.28

[[record]]
substance = "KWKAQKRFLKKWKAAARFLK [BPI.47]"
data_value = 3.28

[[record]]
substance = "AKISGKWKAQKRFLK [BPI.15]"
data_value = 2.50

[[record]]
substance = "NVGLKFSISNANIKISGKWKAQKRFLK [BPI.3]"
data_value = 2.89

[[record]]
substance = "IKISGKFKAQKRFLK [BPI.61]"
data_value = 1.77


For each entry beneath this line, provide reported log10(Kd).
1. KSAVGWLIQLFHKK [BPI.33]
2. IKISGKWKAQKRAβ-(3-pyridyl)LK [BPI.72]
3. IKISGKWKAAARFLK [BPI.45]
4. GTAALQKELKRIKIPDYSDSFKIKHLGKGH [BPI.14]
5. KSKVGWLIQAFHKK [BPI.40]
6. ADADIKISGICWKAQKRFLK [BPI.71]

2.69
2.16
2.18
2.60
2.74
1.88

---

# experiment: 3H-heparin binding assay (affinity and capacity)
# experimental-setup: heparin bound at saturation
Ends that are not written are not given here.
Lab note: anything with Heparin Capacity at or over 300 ng counts as Satisfied; the rest go in Not satisfied.

Example entries begin here.
[[record]]
substance = "KSKVAWLIQLFHKK [BPI.35]"
classification = "Satisfied"

[[record]]
substance = "CIKISGKWKAQKRFLK [BPI.58]"
classification = "Not satisfied"

[[record]]
substance = "ASKVGWLIQLFHKK [BPI.31]"
classification = "Not satisfied"


# bool: Heparin Capacity of CIKISGKWKAQKRFLKC [BPI.65 (red.)] >= 300 ng
Not satisfied

# bool: Heparin Capacity of KSKVFWLIQLFHKK [BPI.95] >= 300 ng
Not satisfied

# bool: Heparin Capacity of KWKAQKRFLKKWKAQKRFLK-NH2 (C-terminus assumed) [BPI.7] >= 300 ng
Satisfied

# bool: Heparin Capacity of IKISGKFKAQKRFLK [BPI.61] >= 300 ng
Not satisfied

# bool: Heparin Capacity of KSKVGWLIQAFHKK [BPI.40] >= 300 ng
Not satisfied

# bool: Heparin Capacity of KSKVGWLIQLFHKA [BPI.44] >= 300 ng
Satisfied

# bool: Heparin Capacity of GTAALQKELKRIKIPDYSDSFKIKHLGKGH [BPI.14] >= 300 ng
Not satisfied

# bool: Heparin Capacity of ADADIKISGICWKAQKRFLK [BPI.71] >= 300 ng
Not satisfied

---

# experiment: 3H-heparin binding assay (affinity and capacity)
# experimental-setup: heparin bound at saturation
Square brackets hold non-standard residues; d marks the D form. Ends that are not written are not given here. 3Pal = N[C@@H](Cc1cccnc1)C(=O)O
Hi there, I'd appreciate the recorded Heparin Capacity for every entry that follows.
Give bare numbers, in ng.

Sample records with Heparin Capacity:
[[record]]
substance = "IAISGKWKAQKRFLA [BPI.60]"
measure_unit = "ng"
data_value = 120.3

[[record]]
substance = "IKISGKAβ-(3-pyridyl)KAQKRFLK (IKISGK[3Pal]KAQKRFLK) [BPI.70]"
measure_unit = "ng"
data_value = 59.2

[[record]]
substance = "KSKVGWLIQLAHKK [BPI.41]"
measure_unit = "ng"
data_value = 119.1


For each entry beneath this line, provide reported Heparin Capacity.
1. CIKISGKWKAQKRFLKC [BPI.65 (ox.)]
2. IKISGKWKAFFRFLK [BPI.88]
3. IKISGAWAAQKRFLK [BPI.59]
4. KSKVKWLIKLFFKFKSKVKWLIKLFFKF [BPI.101]

1. 190.6
2. 352.8
3. 106.7
4. 210.9

---

# System: C. albicans
# experiment: Radial diffusion fungicidal assay, Candida albicans
# Format: cell-based
# experimental-setup: radial diffusion
Ends that are not written are not given here.
Kindly apply the following: label 1 if C. albicans: pmol required for 30 mm^2 zone is less than 400 pmol, label 0 in every other case.

Example entries begin here.
[[record]]
substance = "KSKVGWLIQLFFKK [BPI.94]"
classification = "label 0"

[[record]]
substance = "CKSKVGWLIQLFHKKC [BPI.137]"
classification = "label 0"

[[record]]
substance = "KWKAQKRFLKKSKVGWLIQLFHKK-NH2 (C-terminus assumed) [BPI.30]"
classification = "label 0"

[[record]]
substance = "KWKAAARFLKKSKVGWLIQLFHKK [BPI.145]"
classification = "label 0"

[[record]]
substance = "KSKVLWLIQLFHKK [BPI.85]"
classification = "label 0"


Kindly consider the entry below.
Please determine if KWAFAKKQKKRLKRQWLKKF [BPI.150] is below 400 pmol in terms of C. albicans: pmol required for 30 mm^2 zone.
label 0
